Source: patent US10800789B2

# System: NS5A chimeric genotype 1b Con1 replicon with genotype 3a S52 strain NS5A gene
# Assay Remarks: Replicon assay, genotype 3a NS5A chimera
# Type: cell-based, HCV
# Condition Set: Hepatitis C virus, read-out: 3a (s), (s); activity range
pEC50: −log10 of the molar value.
Readout Type: pEC50

Please review the following examples before continuing.
Molecule	pEC50
COC(=O)NC(C(=O)N1[C@@H](C)CC[C@H]1c1nc2ccc3cc4c(cc3c2[nH]1)OCc1cc(-c2cnc([C@@H]3CC[C@H](C)N3C(=O)[C@@H](NC(=O)OC)C3CCOCC3)[nH]2)ccc1-4)C1CCOCC1 (stereo partly shown)	> 10.00
CC[C@H]1CC[C@@H](c2ncc(-c3ccc4c(c3)COc3cc5c(ccc6nc([C@@H]7C[C@H](COC)CN7C(=O)[C@@H](NC(=O)OC)C(C)C)[nH]c65)cc3-4)[nH]2)N1C(=O)[C@@H](NC(=O)OC)C(C)C	7.36 to 9.00
CC[C@H]1CC[C@@H](c2ncc(-c3ccc4c(c3)COc3cc5c(ccc6nc([C@@H]7C[C@@H]8CCC[C@@H]8N7C(=O)[C@@H](NC(=O)OC)C(C)C)[nH]c65)cc3-4)[nH]2)N1C(=O)[C@@H](NC(=O)OC)C1CCOCC1	9.00 to 10.00

Query molecule follows.
input: Please report the measured pEC50 for CC[C@H](C)[C@H](NC(=O)OC)C(=O)N1C[C@@H](C)C[C@H]1c1nc2ccc3cc4c(cc3c2[nH]1)OCc1cc(-c2cnc([C@@H]3CC[C@H](C)N3C(=O)[C@@H](NC(=O)OC)C(C)C)[nH]2)ccc1-4
output: 9.00 to 10.00

* * *

# System: NS5A chimeric genotype 2a JFH-1 replicon with genotype 2b MD2b-1 strain NS5A gene (M31 present)
# Assay Remarks: Replicon assay, genotype 2b NS5A chimera
# Format: cell-based, HCV
# Condition Set: Hepatitis C virus, read-out: 2b (s) (nM), genotype 2b MD2b-1 NS5A chimeric replicon (M31), stably replicating replicon cells (s)
Readout Type: EC50 (nM)
Express the result in nM but write the number alone.

Please review the following examples before continuing.
Molecule	EC50, nM
CC[C@H](C)[C@H](NC(=O)OC)C(=O)N1[C@@H](C)CC[C@H]1c1ncc(-c2ccc3c(c2)COc2cc4c(ccc5nc([C@@H]6CC[C@H](C)N6C(=O)[C@@H](NC(=O)OC)C6CCOCC6)[nH]c54)cc2-3)[nH]1	0.083
COC(=O)N[C@H](C(=O)N1[C@@H](C)CC[C@H]1c1ncc(-c2ccc3c(c2)COc2cc4c(ccc5nc([C@@H]6C[C@@H]7CCC[C@@H]7N6C(=O)[C@@H](NC(=O)OC)C6CCOCC6)[nH]c54)cc2-3)[nH]1)C(C)C	0.062
CC[C@H]1CC[C@@H](c2nc3ccc4cc5c(cc4c3[nH]2)OCc2cc(-c3cnc([C@@H]4C[C@@H]6CCC[C@@H]6N4C(=O)[C@@H](NC(=O)OC)C(C)C)[nH]3)ccc2-5)N1C(=O)[C@@H](NC(=O)OC)C1CCOCC1	0.119
COC[C@H]1C[C@@H](c2ncc(-c3ccc4c(c3)c(=O)oc3cc5c(ccc6nc([C@@H]7CC[C@H](C)N7C(=O)[C@@H](NC(=O)OC)C(C)C)[nH]c65)cc34)[nH]2)N(C(=O)[C@H](NC(=O)OC)c2ccccc2)C1	0.187
CC[C@H]1C[C@@H](c2ncc(-c3ccc4c(c3)COc3cc5c(ccc6nc([C@@H]7CC[C@H](C)N7C(=O)[C@@H](NC(=O)OC)C(C)C)[nH]c65)cc3-4)[nH]2)N(C(=O)[C@@H](NC(=O)OC)C(C)C)C1	2.41
COC(=O)N[C@H](C(=O)N1[C@@H](C)CC[C@H]1c1ncc(-c2ccc3c(c2)COc2cc4c(ccc5nc([C@@H]6CC[C@H](C(C)C)N6C(=O)[C@@H](NC(=O)OC)C6CCOCC6)[nH]c54)cc2-3)[nH]1)C(C)C	1.81

input: Please report the measured EC50 for COC(=O)N[C@H](C(=O)N1[C@@H](C)CC[C@H]1c1ncc(-c2ccc3c(c2)COc2cc4c(ccc5nc([C@@H]6CC[C@H](C)N6C(=O)[C@@H](NC(=O)OC)[C@@H](C)OC(F)F)[nH]c54)cc2-3)[nH]1)C(C)C
output: 0.259

input: Please report the measured EC50 for COC[C@H]1C[C@@H](c2nc3ccc4cc5c(cc4c3[nH]2)OCc2cc(-c3cnc([C@@H]4CC[C@H](C)N4C(=O)[C@@H](NC(=O)OC)C(C)C)[nH]3)ccc2-5)N(C(=O)[C@@H](NC(=O)OC)C2CCOCC2)C1
output: 0.091

input: Please report the measured EC50 for COC(=O)N[C@H](C(=O)N1CCC[C@H]1c1ncc(-c2ccc3c(c2)COc2cc4c(ccc5nc([C@@H]6CCCN6C(=O)[C@@H](NC(=O)OC)C6CCOCC6)[nH]c54)cc2-3)[nH]1)C1CCOCC1
output: 0.203

input: Please report the measured EC50 for CC[C@H]1CC[C@@H](c2ncc(-c3ccc4c(c3)COc3cc5c(ccc6nc([C@@H]7CC[C@H](C)N7C(=O)[C@@H](NC(=O)OC)[C@@H](C)OC)[nH]c65)cc3-4)[nH]2)N1C(=O)[C@@H](NC(=O)OC)C(C)C
output: 0.279

input: Please report the measured EC50 for COC(=O)N[C@H](C(=O)N1C[C@@H](C)C[C@H]1c1ncc(-c2ccc3c(c2)COc2cc4c(ccc5nc([C@@H]6CC[C@H](C)N6C(=O)[C@@H](NC(=O)OC)[C@@H](C)OC)[nH]c54)cc2-3)[nH]1)[C@@H](C)OC
output: 0.173

input: Please report the measured EC50 for COC(=O)N[C@H](C(=O)N1C[C@@H](C)C[C@H]1c1ncc(-c2ccc3c(c2)COc2cc4c(ccc5nc([C@@H]6C[C@H](C)CN6C(=O)[C@@H](NC(=O)OC)[C@@H](C)OC)[nH]c54)cc2-3)[nH]1)[C@@H](C)OC
output: 0.262

input: Please report the measured EC50 for CC[C@H]1CC[C@@H](c2ncc(-c3ccc4c(c3)COc3cc5c(ccc6nc([C@@H]7CC[C@H](C)N7C(=O)[C@@H](NC(=O)OC)C7CCOCC7)[nH]c65)cc3-4)[nH]2)N1C(=O)[C@@H](NC(=O)OC)C(C)C
output: 0.095

input: Please report the measured EC50 for COC(=O)N[C@H](C(=O)N1C[C@@H](C)C[C@H]1c1nc2ccc3cc4c(cc3c2[nH]1)OCc1cc(-c2cnc([C@@H]3CC[C@H](C)N3C(=O)[C@@H](NC(=O)OC)C(C)(C)C)[nH]2)ccc1-4)C(C)C
output: 2.92

input: Please report the measured EC50 for COC(=O)N[C@@H](C)C(=O)N1[C@@H](C)CC[C@H]1c1ncc(-c2ccc3c(c2)COc2cc4c(ccc5nc([C@@H]6CC[C@H](C)N6C(=O)[C@@H](NC(=O)OC)C(C)C)[nH]c54)cc2-3)[nH]1
output: 3.72

input: Please report the measured EC50 for CC[C@H](C)[C@H](NC(=O)OC)C(=O)N1[C@@H](C)CC[C@H]1c1nc2ccc3cc4c(cc3c2[nH]1)OCc1cc(-c2cnc([C@@H]3CC[C@H](C)N3C(=O)[C@@H](NC(=O)OC)C3CCOCC3)[nH]2)ccc1-4
output: 0.066

input: Please report the measured EC50 for CC[C@H](C)[C@H](NC(=O)OC)C(=O)N1CCC[C@H]1c1ncc(-c2ccc3c(c2)COc2cc4c(ccc5nc([C@@H]6CCCN6C(=O)[C@@H](NC(=O)OC)[C@@H](C)CC)[nH]c54)cc2-3)[nH]1
output: 2.25

input: Please report the measured EC50 for COC(=O)N[C@H](C(=O)N1C[C@@H](C)C[C@H]1c1nc2ccc3cc4c(cc3c2[nH]1)OCc1cc(-c2cnc([C@@H]3CC[C@H](C)N3C(=O)[C@@H](NC(=O)OC)C3CCOCC3)[nH]2)ccc1-4)C(C)C
output: 0.085

input: Please report the measured EC50 for COC(=O)N[C@H](C(=O)N1C(c2ncc(-c3ccc4c(c3)COc3cc5c(ccc6nc(C7C[C@H](C)CN7C(=O)[C@@H](NC(=O)OC)C(C)(C)C)[nH]c65)cc3-4)[nH]2)CC[C@@H]1C)C(C)C (stereo partly shown)
output: 2.86
